meta.source: ChEMBL document CHEMBL1201862

GI50 reference
Tested on: OVCAR-3
assay.text: NCI tumour cell line growth inhibition, 48 h
Active and inactive are the calls of the source. No stated cut-off is given here; in the data, active = GI50 up to about 1.1 µM and inactive = higher.
readout.type: GI50

* O=C(O)C1CCCCN1C(=O)Cc1c[nH]c2ccccc12 (stereo not drawn) | > 100 µM (inactive)
* C1=NN(Cc2ccccc2)C(N(Cc2ccccc2)Cc2ccccc2)N1 (stereo not drawn) | 14 µM (inactive)
* CN(CCCN(C)CCc1ccc(Cl)c(Cl)c1)CCCN1CCCC1 | 3.72 µM (inactive)
* Cc1cc(C)nc(NCCC(O)(P(=O)(O)O)P(=O)(O)O)n1 | 39.2 µM (inactive)
* O=C1Nc2ccccc2Cn2c1cc1oc(-c3ccccc3)cc12 | 19.2 µM (inactive)
* S=C1SC(c2ccc(Cl)cc2)(c2ccc(Cl)cc2)c2ccccc21 | 72.1 µM (inactive)
* O=S(=O)(O)SC/C=C\CSS(=O)(=O)O | > 100 µM (inactive)
* CCCCCNC1=CC(=O)c2ccccc2C1=O | 22.5 µM (inactive)
* ClCCCC1COc2ccccc2O1 (stereo not drawn) | > 100 µM (inactive)
* COc1ccc(/C=C2\CCCCC2=O)cc1 | > 100 µM (inactive)
* CC1(C)OP23(NC(=O)OC2(C(F)(F)F)c2ccccc2O3)OC1(C)C (stereo not drawn) | > 100 µM (inactive)
* Nc1nc(-c2ccccc2)cc(-c2ccc(OCc3ccccc3)cc2O)n1 | 26.7 µM (inactive)
* O=C1C(O)=C(C(C2=C(O)C(=O)c3ccccc3C2=O)c2ccc(Cl)cc2)C(=O)c2ccccc21 | 4.93 µM (inactive)
* N#Cc1c(=O)c2cccnc2n2c1[nH]c1ccccc12 | 78 µM (inactive)
* CN1C(=O)c2cccc3cc([N+](=O)[O-])cc(c23)C1=O | > 10 µM (inactive)
* CCCCCCn1c(SCC)c2ccccc2c1-c1nc(F)nc(F)n1 | > 100 µM (inactive)
* CSc1ccc2c(c1)C(N1CCN(C)CC1)Cc1ccccc1S2 (stereo not drawn) | 8.91 µM (inactive)
* [O-][n+]1onc(-c2ccccc2)c1-c1no[n+]([O-])c1-c1c(-c2ccccc2)no[n+]1[O-] | 5.71 µM (inactive)
* C(/C=N/N=C1NCCN1)=N\N=C1NCCN1 | > 100 µM (inactive)
* CC(=O)OCC1OC(OC2CC3C(C)(C)C(OC(C)=O)CC[C@]3(C)C3CCC45CC4(CC[C@H]5C(C)CC(O)C4OC4(C)C)[C@]23C)C(O)C(O)C1O (stereo partly drawn) | 2.58 µM (inactive)
* COC(=O)C1CCC(=O)N1C(c1cc(OC)c(OC)c(OC)c1)c1cccc2ccccc12 (stereo not drawn) | > 100 µM (inactive)
* O=C1C=C(Nc2ccccc2C(=O)c2ccccc2)c2ccccc2C1=O | 70 µM (inactive)
* N#CCc1n[nH]c2nc(SCc3ccccc3)nc(N3CCCCC3)c12 | 20.7 µM (inactive)
